tested on: amphetamine-induced symptoms (cage movement) in rats; assay: Antagonism of amphetamine stereotypy in rats; type: in vivo, rat; conditions: Rattus norvegicus, sc, 5 h, Part A; 5 hr; test compound s.c. (method); read-out: ED50 (mg./kg.) 5 Hr.
Structures can show the parent of a compound that is named as a salt.
Below: a set of entries, each annotated with reported ED50.
property_measured: ED50

INSERT INTO results (molecule, reading) VALUES
  ('O=C(CCCN1CC[C@@H]2[C@@H](C1)c1cc(F)ccc1N2c1ccc(F)cc1)c1ccc(F)cc1 (relative stereo)', '< 1 mg/kg'),
  ('O=C(CCCN1CC[C@@H]2[C@@H](C1)c1ccccc1N2c1ccccc1)c1ccc(F)cc1 (relative stereo)', '0.1 to 0.32 mg/kg'),
  ('COc1ccc(C(O)CCCN2CCC3C(C2)c2ccccc2N3c2ccccc2)cc1 (centres unmarked)', '0.1 to 0.32 mg/kg'),
  ('OC(CCCN1CC[C@@H]2[C@@H](C1)c1ccccc1N2c1ccccc1)c1ccccc1 (relative stereo)', '0.032 to 0.1 mg/kg'),
  ('OC(CCCN1CC[C@@H]2[C@@H](C1)c1cc(F)ccc1N2c1ccc(F)cc1)c1ccccc1 (relative stereo)', '0.1 to 0.32 mg/kg'),
  ('c1ccc(CCCN2CC[C@@H]3[C@@H](C2)c2ccccc2N3c2ccccc2)cc1 (relative stereo) [X1=H, Y1=H, R=C6 H5 (CH2)3, reference compound]', '3.2 to 10 mg/kg'),
  ('OC(CCCN1CC[C@@H]2[C@@H](C1)c1ccccc1N2c1ccccc1)c1ccc(F)cc1 (relative stereo)', '0.1 to 0.32 mg/kg'),
  ('c1ccc(CN2CC[C@@H]3[C@@H](C2)c2ccccc2N3c2ccccc2)cc1 (relative stereo) [X1=H, Y1=H, R=C6 H5 CH2, Hydrochloride, reference compound]', '3.2 to 32 mg/kg');

###

biological target: UniProtKB P61169; assay: Inhibition of 3H-spiroperidol binding to dopamine receptors; design: species or system rat (Sprague-Dawley CD males); conditions: rat corpus striatum; 0.5 nM 3H-spiroperidol; 10 min at 37° C.; hydrochloride salts
Sequence (P61169 whole entry): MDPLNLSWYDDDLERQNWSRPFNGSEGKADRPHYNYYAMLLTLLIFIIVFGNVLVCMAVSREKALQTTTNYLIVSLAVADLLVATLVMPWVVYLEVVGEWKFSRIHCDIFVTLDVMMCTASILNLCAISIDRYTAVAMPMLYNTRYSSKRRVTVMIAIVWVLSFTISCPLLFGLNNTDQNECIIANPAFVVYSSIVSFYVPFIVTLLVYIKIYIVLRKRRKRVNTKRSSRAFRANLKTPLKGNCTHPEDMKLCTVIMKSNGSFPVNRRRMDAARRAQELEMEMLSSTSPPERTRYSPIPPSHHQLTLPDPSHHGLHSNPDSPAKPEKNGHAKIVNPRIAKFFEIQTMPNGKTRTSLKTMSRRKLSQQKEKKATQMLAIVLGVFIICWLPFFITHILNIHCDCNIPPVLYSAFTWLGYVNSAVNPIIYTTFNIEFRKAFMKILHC
Structures can show the parent of a compound that is named as a salt.
property_measured: IC50 (nM)

INSERT INTO results (compound, unit_text, reading) VALUES
  ('OC(CCCN1CC[C@@H]2[C@@H](C1)c1cc(F)ccc1N2c1ccc(F)cc1)c1ccc(F)cc1 (relative stereo) [αβ]', 'nM', 23),
  ('OC(CCCN1CCC2C(C1)c1cc(F)ccc1N2c1ccc(F)cc1)c1ccc(F)cc1 (single isomer, unassigned) [β, hydrochloride]', 'nM', 1800),
  ('OC(CCCN1CC[C@@H]2[C@@H](C1)c1cc(F)ccc1N2c1ccc(F)cc1)c1ccc(F)cc1 (relative stereo) [αβγδ, hydrochloride]', 'nM', 21);
